system: Plasmodium falciparum; assay: Antiplasmodial activity against chloroquine resistant Plasmodium falciparum FcB1/Columbia infected in human erythrocytes preincubated for 24 hrs followed by [3H]-hypoxanthine addition and measured after 24 hrs by liquid scintillation analysis; format: functional, organism-based
pIC50: −log10 of the molar value.
READOUT_NAME: pIC50

compound="COC12OOC3(C=C1C(=O)C(C)(C)C(=O)C2(C)C)CCN(C(=O)CCC(=O)NCCCCN(CCCCNC(=O)CCC(=O)N1CCC2(C=C4C(=O)C(C)(C)C(=O)C(C)(C)C4(OC)OO2)CC1)C(=O)CCC(=O)NCCNc1ccnc2cc(Cl)ccc12)CC3 (stereo not drawn)" readout_name=pIC50 result_value="< 6.78"
compound="COC12OOC3(C=C1C(=O)C(C)(C)C(=O)C2(C)C)CCN(C(=O)CCC(=O)NCCCCN(CCCNC(=O)CCC(=O)N1CCC2(C=C4C(=O)C(C)(C)C(=O)C(C)(C)C4(OC)OO2)CC1)C(=O)CCC(=O)NCCNc1ccnc2cc(Cl)ccc12)CC3 (stereo not drawn)" readout_name=pIC50 result_value="< 6.78"

Now, please, on to the next compound.
Entry under review: COC12OOC3(C=C1C(=O)C(C)(C)C(=O)C2(C)C)CCNCC3 (stereo not drawn) . Reported pIC50?
< 6.60
